System: Hek-293 (noncancerous human embryonic kidney cell)
test_description: SRB cytotoxicity assay, Hek-293 cells
Type: cell-based
setup_conditions: SRB assay, non-cancerous cells, 0.16–20 µg/mL, 72 h; read-out: IC50 Hek-293
parameter: pIC50
Lab note: report pIC50 as minus log10 of the concentration in molar units, number only.

query: Given `COc1ccc(C(=O)[C@H]2CO[C@H](c3ccc(OC)c(OC)c3)[C@H]2CO)cc1OC` , state its recorded pIC50.
result: 4.64
